We begin with a simple list: items and their reported pIC50.
- TARGET OR TEST SYSTEM: Bovine Striatum (3H-CCK-8-(SO3 H) receptor binding) (Bos taurus, UniProt P79266)
- Construct: tissue homogenate (striatum approximately 0.26 mg protein in 2 mL final volume); from tissue; host or cells: bovine striatum membrane homogenate
- Sequence (P79266 1-454): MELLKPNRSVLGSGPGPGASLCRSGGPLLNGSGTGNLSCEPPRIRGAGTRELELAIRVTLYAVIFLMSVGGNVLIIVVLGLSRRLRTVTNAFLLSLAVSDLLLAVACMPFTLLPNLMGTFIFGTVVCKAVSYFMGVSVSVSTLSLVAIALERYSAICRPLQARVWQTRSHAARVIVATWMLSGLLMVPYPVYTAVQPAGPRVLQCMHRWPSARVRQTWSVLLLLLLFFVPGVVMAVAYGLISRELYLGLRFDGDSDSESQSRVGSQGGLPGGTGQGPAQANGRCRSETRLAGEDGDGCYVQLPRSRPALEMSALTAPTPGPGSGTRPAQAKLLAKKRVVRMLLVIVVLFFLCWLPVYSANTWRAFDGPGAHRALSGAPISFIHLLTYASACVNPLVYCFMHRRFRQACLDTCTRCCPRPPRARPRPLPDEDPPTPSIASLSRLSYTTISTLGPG
- PROTOCOL TEXT: In vitro receptor binding assay, 3H-CCK-8-(SO3H), bovine striatum homogenate
- CONDITION NOTES: 3H-CCK-8-(SO3H) 0.15 nM, 30 min at 25° C., bovine striatum homogenate; read-out: Bovine Striatum IC50 (concentration to inhibit 50% of specific 3H-CCK-8-(SO3H) binding)
pIC50: −log10 of the molar value. Starred links: 1 amine or outer side, 2 acyl side, 3 side chain; linkers in the order of their positions; H or OH if unused. Positions of bridges follow the written chain, without caps; N, C: chain ends. Non-standard residues stand in square brackets, D forms with d. Residues, ends and D or L forms follow the SMILES beside them. *: point of attachment. Propanoyl(3-(4-HOOCCH2-Ph)) = O=C(O)Cc1ccc(CCC(=O)*)cc1; X15 = O=C([C@@H](Cc1ccc(-c2nn[nH]n2)cc1)N[*:1])[*:2]; X1 = O=C(O)Cc1ccc(CC(N[*:1])C(=O)[*:2])cc1; X16 = O=C(CCc1ccc(-c2nnn[nH]2)cc1)*; NMeF = CN[C@@H](Cc1ccccc1)C(=O)O; Nle = CCCC[C@H](N)C(=O)O
ASSAY ENDPOINT: pIC50

• CSCC[C@@H]1NC(=O)[C@H](Cc2c[nH]c3ccccc23)NC(=O)CNC(=O)[C@@H](NC(=O)C(Cc2ccc(CC(=O)O)cc2)NC(C)=O)CCCCNC(=O)C[C@@H](C(=O)N(C)[C@@H](Cc2ccccc2)C(N)=O)NC1=O (stereo partly shown) [Example 56] (Ac-[X1]KGWMD[NMeF]-NH2; lactam 2-6) = 5.00
• CCCC[C@H](NC(=O)CCc1ccc(CC(=O)O)cc1)C(=O)N[C@H](C)C(=O)N[C@@H](Cc1c[nH]c2ccccc12)C(=O)N[C@@H](CCCC)C(=O)N[C@@H](CC(=O)O)C(=O)N(C)[C@@H](Cc1ccccc1)C(N)=O [Example 71] ({Propanoyl(3-(4-HOOCCH2-Ph))}-[Nle][dA]W[Nle]D[NMeF]-NH2) = 5.85
• CSCC[C@H](NC(=O)CCc1ccc(-c2nnn[nH]2)cc1)C(=O)NCC(=O)N[C@@H](Cc1c[nH]c2ccccc12)C(=O)N[C@@H](CCSC)C(=O)N[C@@H](CC(=O)O)C(=O)N[C@@H](Cc1ccccc1)C(N)=O [Example 67] (X16-MGWMDF-NH2) = 8.29
• CSCC[C@H](NC(=O)[C@H](Cc1c[nH]c2ccccc12)NC(=O)CNC(=O)[C@H](CCSC)NC(=O)[C@@H](Cc1ccc(-c2nn[nH]n2)cc1)NC(C)=O)C(=O)N[C@@H](CC(=O)O)C(=O)N[C@@H](Cc1ccccc1)C(N)=O [Example 54] (Ac-[X15]MGWMDF-NH2) = 7.30

The origin of these recorded values is patent US5508437A.
